Where do these numbers come from? They come from PubChem BioAssay (NCI).

- System: A549/ATCC NSCLC
- experiment_summary: NCI-60 one-dose screen, 48 h (100 = growth as untreated, 0 = no growth, -100 = all killed)
- test_context: 10 µM unless noted
Compounds without any hit were thinned out: in the full panel of roughly 83,000, 20% have a hit.
readout_kind: growth (%)
The answer is to be given in %; state only the numeric part.

Example results:
- compound: "COc1ccc(-c2nc3ccc(Cc4ccc5nc(-c6ccc(OC)cc6)[nH]c5c4)cc3[nH]2)cc1"
  unit_label: "%"
  val: 48.5
- compound: "Cc1ccc(S(=O)(=O)NC(CCC(=O)Nc2ccc(Cl)cc2)C(=O)Nc2ccc(Cl)cc2)cc1 (configuration not stated)"
  unit_label: "%"
  val: 27.6
- compound: "COc1cc2nccc(Oc3ccc(NC(=O)C4(C(=O)Nc5ccc(F)cc5)CC4)cc3)c2cc1O"
  unit_label: "%"
  val: 56.4
- compound: "C=CCn1c(SCC(=O)Nc2ccc(C(=O)/C=C/c3ccccc3)cc2)nnc1-c1ccc(OC)c(OC)c1"
  unit_label: "%"
  val: 61
- compound: "Cc1ccc(N=CNN=C(N)N)cc1"
  unit_label: "%"
  val: 100
- compound: "CCOC(=O)C(=CNc1ccccc1Cl)C(=O)OCC"
  unit_label: "%"
  val: 85.6
- compound: "CC(C)(C)NC(=O)C(OC(=O)C1CCc2cc(F)ccc2O1)c1ccccc1Cl (configuration not stated)"
  unit_label: "%"
  val: 98.6
- compound: "CCN(CC)c1ccc(C(=N)c2ccc(N(C)C)cc2)cc1"
  unit_label: "%"
  val: 28.6
- compound: "COc1cc(C)cc2oc3oc(=O)c(-c4csc(-c5cc6ccccc6oc5=O)n4)cc3c(=O)c12"
  unit_label: "%"
  val: 114
- compound: "CCN(C(=O)Nc1cccc2ccccc12)c1ccccc1"
  unit_label: "%"
  val: 98.7

Let us examine a further case.
Request: Find the recorded growth belonging to CN1CCN(Cc2ccc(NC(=O)c3ccc(C#N)c(C#Cc4cnc(N)c5ncccc45)c3)cc2C(F)(F)F)CC1 and report it.
Result: 90.6

* * *

Recorded growth by entry
- Tested on: CCRF-CEM leukemia
- experiment_summary: NCI-60 one-dose screen, 48 h (100 = growth as untreated, 0 = no growth, -100 = all killed)
- test_context: 10 µM unless noted
About 83,000 compounds went through this panel and 20% of them were active in at least one assay; those are over-represented in the sample as a whole.
The answer is to be given in %; state only the numeric part.

- compound: "Cc1cc(NC(=O)c2ccc(N)cc2)ccc1N=Nc1ccc2cc(S(=O)(=O)O)cc(S(=O)(=O)O)c2c1"
  system_tested: "CCRF-CEM leukemia"
  unit_label: "%"
  growth: 87.1
- compound: "CNC(=O)c1cc(Oc2ccc(NC(=O)c3nc(S(C)(=O)=O)sc3-c3ccc(F)cc3)cc2)ccn1"
  system_tested: "CCRF-CEM leukemia"
  unit_label: "%"
  growth: 85.9
- compound: "O=C(/C=C/c1cn(-c2ccccc2)nc1-c1cccc(Nc2ccnc3cc(Cl)ccc23)c1)c1ccc2c(c1)OCO2"
  system_tested: "CCRF-CEM leukemia"
  unit_label: "%"
  growth: 17.2
- compound: "Nc1nonc1-c1nc2ccccc2n1Cc1ccc(F)cc1"
  system_tested: "CCRF-CEM leukemia"
  unit_label: "%"
  growth: 54.2
- compound: "CCNS(=O)(=O)c1ccc(C)cc1"
  system_tested: "CCRF-CEM leukemia"
  unit_label: "%"
  growth: 89.7

Request: Find the recorded growth belonging to C=C(C)[C@@H]1CC[C@]2(C)[C@H](CC=C3[C@@H]4C[C@](C)(C(=O)N5CCN(C)CC5)CC[C@]4(C)CC[C@]32C)[C@@]1(C)CCC#N and report it.
Result: 34.1

Request: Same lookup for Cc1ccc(NC(=O)c2nc(S(C)(=O)=O)oc2-c2ccc(F)cc2)cc1Nc1ccc2ncn(C)c(=O)c2c1 , please.
Result: 16.3

Request: Same lookup for CC(=O)O[C@H]1[C@H](CC#CC#CC[C@@H]2C[C@]3(C)[C@H]4CC=C5[C@H]6[C@@H](C)[C@H](C)CC[C@]6(C(=O)NCCCCCCCCN)CC[C@@]5(C)[C@]4(C)CC[C@H]3C(C)(C)[C@H]2OC(C)=O)C[C@]2(C)[C@H]3CC=C4[C@H]5[C@@H](C)[C@H](C)CC[C@]5(C(=O)NCCCCCCCCN)CC[C@@]4(C)[C@]3(C)CC[C@H]2C1(C)C , please.
Result: 105

Request: Same lookup for O=C(Nc1ccc2ncnc(Nc3ccc(F)c(Cl)c3)c2c1)c1cccs1 , please.
Result: 76.9

Request: Same lookup for Cc1cc(C)c([O-])c(CN(C)CCN(C)Cc2cc(C)cc(C)c2[O-])c1.O=C([O-])c1cccc(C(=O)[O-])n1.[Ti+4] , please.
Result: -2.1
